ASSAY_TARGET: T1, biotinylated cynoPD1-ECD-Biotin (cynomolgus)
T1 construct: extracellular domain; also called cyPD1
METHOD_NOTES: ELISA, cynomolgus cross-reactivity
pEC50: −log10 of the molar value.
METRIC_NAME: pEC50

| BINDER | METRIC_NAME | RECORDED_NUMBER |
| --- | --- | --- |
| PD1-0103-0313 (antibody, human IgG1, V domains shown, Humanized) VH: EVQLLESGGGLVQPGGSLRLSCAASGFSFSSYTMSWVRQAPGKGLEWVATISGGGRDIYYPDSVKGRFTISRDNSKNTLYLQMNSLRAEDTAVYYCVLLTGRVYFALDSWGQGTLVTVSS VL: DVVMTQSPLSLPVTLGQPASISCRASESVDTSDNSFIHWYQQRPGQSPRLLIYRSSTLESGVPDRFSGSGSGTDFTLKISRVEAEDVGVYYCQQNYDVPWTFGQGTKVEIK | pEC50 | 10.22 |
| PD1-0103-0314 (antibody, human IgG1, V domains shown, Humanized) VH: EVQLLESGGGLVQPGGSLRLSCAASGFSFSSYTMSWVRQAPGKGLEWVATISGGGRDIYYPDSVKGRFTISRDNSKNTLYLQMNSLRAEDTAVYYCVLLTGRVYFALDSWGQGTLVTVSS VL: EIVLTQSPATLSLSPGERATLSCRASESVDTSDNSFIHWYQQKPGQSPRLLIYRSSTLESGIPARFSGSGSGTDFTLTISSLEPEDFAVYYCQQNYDVPWTFGQGTKVEIK | pEC50 | 10.30 |
| PD1-0103-0315 (antibody, human IgG1, V domains shown, Humanized) VH: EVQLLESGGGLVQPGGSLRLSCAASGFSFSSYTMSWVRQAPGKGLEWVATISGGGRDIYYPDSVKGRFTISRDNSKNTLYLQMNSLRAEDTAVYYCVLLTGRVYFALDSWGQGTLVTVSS VL: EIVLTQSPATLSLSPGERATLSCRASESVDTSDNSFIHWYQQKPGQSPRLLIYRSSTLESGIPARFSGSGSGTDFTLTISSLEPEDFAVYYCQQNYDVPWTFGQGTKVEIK | pEC50 | 10.40 |
| PD1-0103-0312 (antibody, human IgG1, V domains shown, Humanized) VH: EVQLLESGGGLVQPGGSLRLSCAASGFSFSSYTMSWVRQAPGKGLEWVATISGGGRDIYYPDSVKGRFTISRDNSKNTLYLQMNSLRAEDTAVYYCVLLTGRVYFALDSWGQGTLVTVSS VL: DIVMTQSPDSLAVSLGERATINCKASESVDTSDNSFIHWYQQKPGQSPKLLIYRSSTLESGVPDRFSGSGSGTDFTLTISSLQAEDVAVYYCQQNYDVPWTFGQGTKVEIK | pEC50 | 10.10 |
